The measured values listed here are drawn from patent US20250136677A1.

Parameter % Inhibition Relative to Parent (pSTAT, FCWF-4 cells): see the listing below.
assay_target: T1, wildtype feline IL-31 protein (Feline_IL31_wildtype) (feline); further: test concentration or dose not given here
T1 chain: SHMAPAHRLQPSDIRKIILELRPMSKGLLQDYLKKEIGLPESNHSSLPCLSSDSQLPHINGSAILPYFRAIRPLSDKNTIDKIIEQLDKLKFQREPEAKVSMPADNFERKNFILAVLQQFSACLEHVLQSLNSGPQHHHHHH
protocol_details: cell-based or functional assay
Record the value in %, omitting the unit from your answer.

binder: A39 (antibody, V domains shown) VH: QVLLVQSGAEVRTPGASVKIFCKASGYSFTSYTIHWLRQAPAQGLEWMGNIAPTSGYTENNQRFKDRLTLTADTSTNTAYMELSSLRSADTAMYYCARWGFKYDGEWSFDVWGAGTTVTVSS VL: EIQMTQSPSSLSASPGDRVTITCRASQGISIWLSWYQQKPGNIPKVLINKASNLHIGVPSRFSGSGSGTDFTLTISSLEPEDAATYYCLQSQTYPLTFGGGTKLEIK
value_units: %
numeric_value: 25.1

Entry A60 (antibody, V domains shown) VH: QVLLVQSGAEVRTPGASVKIFCKASGYSFTSYTIHWLRQAPAQGLEWMGNINPTSGYTENNQRFKDRLTLTADTSTNTAYMELSSLRSADTAMYYCARWGFKYDGEASFDVWGAGTTVTVSS VL: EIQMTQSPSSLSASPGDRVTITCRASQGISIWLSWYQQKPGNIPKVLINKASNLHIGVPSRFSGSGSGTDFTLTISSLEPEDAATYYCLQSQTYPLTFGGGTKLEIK — recorded % Inhibition Relative to Parent (pSTAT, FCWF-4 cells) = -8.7

Entry A65 (antibody, V domains shown) VH: QVLLVQSGAEVRTPGASVKIFCKASGYSFTSYTIHWLRQAPAQGLEWMGNINPTSGYTENNQRFKDRLTLTADTSTNTAYMELSSLRSADTAMYYCARWGFKYDGEWSFDAWGAGTTVTVSS VL: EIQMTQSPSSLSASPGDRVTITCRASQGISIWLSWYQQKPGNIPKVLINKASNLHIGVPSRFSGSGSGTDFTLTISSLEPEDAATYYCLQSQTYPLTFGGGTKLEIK — recorded % Inhibition Relative to Parent (pSTAT, FCWF-4 cells) = 26.8
